B1: LINE1-full (parent)
chain: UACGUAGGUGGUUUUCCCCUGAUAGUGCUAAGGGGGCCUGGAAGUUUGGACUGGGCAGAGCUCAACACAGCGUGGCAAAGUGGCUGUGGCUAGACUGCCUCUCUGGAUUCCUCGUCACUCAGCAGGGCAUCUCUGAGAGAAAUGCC

Variants of: B1
Assay: self-cleavage, relative activity (ratio to wild type); higher = more cleavage; in vitro, sequencing; the parent is a self-cleaving ribozyme
Property label: self-cleavage
Form: value (number only, do not type unit).

// solved cases for self-cleavage follow
Var: U45G U96C
self-cleavage: 0.05

Var: U23C U26G
self-cleavage: 1.45

Var: C71A U134A
self-cleavage: 0.18

Var: A31G C123U
self-cleavage: 1.02

Var: U23A A65G
self-cleavage: 0.1

Var: U52A A78G
self-cleavage: 1.43

Query: What value of self-cleavage has been reported for the following variant? A6U G72A
Result: 1.2

Query: Note, next up: U13C U47C
Result: 1.56

Query: Note, next up: U20C A92G
Result: 0.08

Query: Note, next up: A92G A117U
Result: 0.08

Query: Note, next up: U20A G135U
Result: 0.43
